Tested on: Capan-1 (pancreas, adenocarcinoma) cells
Protocol: Cell viability assay, CellTiter-Glo (Example 21)
Type: cell-based, human
Run conditions: 3.7 nM, 72 h treatment
Reported Capan-1 (pancreas, adenocarcinoma) cell viability (% of control) by item:

Worked examples follow.
>>> endpoint_result("O=C1C2=C(CCN(Cc3cc(F)cc(F)c3)C2)N2CCN=C2N1Cc1ccc(Cl)cc1 [I/124]")
"88.5 ± 1.8 % of control"
>>> endpoint_result("O=C1C2=C(CCN(Cc3cccc(F)c3)C2)N2CCN=C2N1Cc1ccc(C(F)(F)F)cc1 [I/3, reference compound]")
"102.7 ± 6.9 % of control"
>>> endpoint_result("[N-]=[N+]=Nc1cccc(CN2CCC3=C(C2)C(=O)N(Cc2ccc(C(F)(F)F)cc2)C2=NCCN23)c1 [I/111]")
"102.5 ± 4.0 % of control"
>>> endpoint_result("O=C1C2=C(CCN(Cc3cc(F)cc(F)c3)C2)N2CCN=C2N1Cc1ccc(F)cc1 [I/7]")
"101.9 ± 3.8 % of control"
>>> endpoint_result("[N-]=[N+]=Nc1cccc(CN2CCC3=C(C2)C(=O)N(Cc2ccc(Cl)cc2)C2=NCCN23)c1 [I/133]")
"108.3 ± 8.3 % of control"
>>> endpoint_result("O=C1C2=C(CCN(Cc3ccccc3)C2)N2CCN=C2N1Cc1ccc(C(F)(F)F)cc1 [I/1, reference compound]")
"100.3 ± 4.0 % of control"
>>> endpoint_result("[N-]=[N+]=Nc1ccc(CN2C(=O)C3=C(CCN(Cc4cc(F)cc(F)c4)C3)N3CCN=C23)cc1 [I/107]")
"103.5 ± 3.0 % of control"
>>> endpoint_result("O=C1C2=C(CCN(Cc3cc(F)cc(F)c3)C2)N2CCN=C2N1Cc1ccc(C(F)(F)F)cc1 [I/30]")
"100.8 ± 5.3 % of control"

Next:
-- ask Which Capan-1 (pancreas, adenocarcinoma) cell viability (% of control) value is on record for O=C1C2=C(CCN(Cc3cccc(F)c3)C2)N2CCN=C2N1Cc1ccc(F)cc1 [I/6, reference compound] ?
-- reply 105.9 ± 7.8 % of control

###

Tested on: MDA-MB-453 (breast, carcinoma) cells
Protocol: Cell viability assay, CellTiter-Glo (Example 21)
Format: cell-based, human
Run conditions: 100 nM, 72 h treatment
Metric name: MDA-MB-453 (breast, carcinoma) cell viability (% of control)

Worked examples follow.
>>> endpoint_result("[N-]=[N+]=Nc1cccc(CN2CCC3=C(C2)C(=O)N(Cc2ccc(C(F)(F)F)cc2)C2=NCCN23)c1 [I/111]")
"30.3 ± 1.0 % of control"
>>> endpoint_result("[N-]=[N+]=Nc1ccc(CN2C(=O)C3=C(CCN(Cc4cc(F)cc(F)c4)C3)N3CCN=C23)cc1 [I/107]")
"32.3 ± 1.3 % of control"
>>> endpoint_result("O=C1C2=C(CCN(Cc3ccccc3)C2)N2CCN=C2N1Cc1ccc(C(F)(F)F)cc1 [I/1, reference compound]")
"37.9 ± 1.3 % of control"

-- ask Which MDA-MB-453 (breast, carcinoma) cell viability (% of control) value is on record for O=C1C2=C(CCN(Cc3cc(F)cc(F)c3)C2)N2CCN=C2N1Cc1ccc(F)cc1 [I/7] ?
-- reply 33.1 ± 1.1 % of control

-- ask Which MDA-MB-453 (breast, carcinoma) cell viability (% of control) value is on record for O=C1C2=C(CCN(Cc3cc(F)cc(F)c3)C2)N2CCN=C2N1Cc1ccc(Cl)cc1 [I/124] ?
-- reply 31.2 ± 2.2 % of control

-- ask Which MDA-MB-453 (breast, carcinoma) cell viability (% of control) value is on record for O=C1C2=C(CCN(Cc3cc(F)cc(F)c3)C2)N2CCN=C2N1Cc1ccc(C(F)(F)F)cc1 [I/30] ?
-- reply 31.1 ± 1.8 % of control
